Molecular target: Delta-type opioid receptor (Cavia porcellus)
Assay: Evaluated for the inhibition of [3H]DADLE binding to Opioid receptor delta 1 of guinea pig brain
Non-standard residues stand in square brackets, D forms with d. Residues, ends and D or L forms follow the SMILES beside them. Met(O) = CS(=O)CC[C@H](N)C(=O)O; Sar = CNCC(=O)O
MEASURED PROPERTY: IC50 (nM)

[
  {
    "COMPOUND": "COC(=O)CN(C)C(=O)[C@H](Cc1ccccc1)NC(=O)[C@H](CC[S+](C)[O-])NC(=O)[C@@H](N)Cc1ccc(O)cc1 (stereo partly drawn) (H-Y[Met(O)]F[Sar]-OMe)",
    "MEASURED PROPERTY": "IC50",
    "UNITS LABEL": "nM",
    "EXPERIMENTAL RESULT": 510
  },
  {
    "COMPOUND": "C[C@@H](NC(=O)[C@@H](N)Cc1ccc(O)cc1)C(=O)N[C@@H](Cc1ccccc1)C(=O)NCC(N)=O (H-Y[dA]FG-NH2)",
    "MEASURED PROPERTY": "IC50",
    "UNITS LABEL": "nM",
    "EXPERIMENTAL RESULT": 818
  },
  {
    "COMPOUND": "COC(=O)CN(C)C(=O)[C@H](Cc1ccccc1)NC(=O)[C@H](CC[S+](C)[O-])NC(=O)[C@H](Cc1ccc(O)cc1)N=C(N)N (stereo partly drawn)",
    "MEASURED PROPERTY": "IC50",
    "UNITS LABEL": "nM",
    "EXPERIMENTAL RESULT": 150
  }
]
